- System: Mus musculus
- measurementProtocol: Antiinflammatory activity in AKR mouse assessed as inhibition of carrageenan-induced paw edema at 0.01 mmol/kg, ip measured after 3.5 hrs of carrageenan-challenge
- Type: functional
Give fulfilled when the value for inhibition in vivo at 10 µmol/kg is at least 30%. Give not fulfilled when it is less.

### Prompt In plain terms: is recorded inhibition in vivo at 10 µmol/kg at least 30% for `COc1ccccc1/C=C1\S/C(=N/c2nccs2)NC1=O` ?
### Response fulfilled

### Prompt In plain terms: is recorded inhibition in vivo at 10 µmol/kg at least 30% for `O=C1N/C(=N\c2nccs2)S/C1=C\c1cccc(F)c1` ?
### Response fulfilled

### Prompt In plain terms: is recorded inhibition in vivo at 10 µmol/kg at least 30% for `O=C1N/C(=N\c2nccs2)S/C1=C\c1ccc(Cl)cc1Cl` ?
### Response not fulfilled

### Prompt In plain terms: is recorded inhibition in vivo at 10 µmol/kg at least 30% for `O=C1N/C(=N\c2nccs2)S/C1=C\c1cccc(Cl)c1Cl` ?
### Response fulfilled

### Prompt In plain terms: is recorded inhibition in vivo at 10 µmol/kg at least 30% for `O=C1N/C(=N\c2nccs2)S/C1=C\c1cccc(O)c1` ?
### Response fulfilled

### Prompt In plain terms: is recorded inhibition in vivo at 10 µmol/kg at least 30% for `CN(C)c1ccc(/C=C2\S/C(=N/c3nccs3)NC2=O)cc1` ?
### Response fulfilled

### Prompt In plain terms: is recorded inhibition in vivo at 10 µmol/kg at least 30% for `O=C1N/C(=N\c2nc(-c3ccccc3)cs2)S/C1=C\c1ccc(Cl)cc1` ?
### Response not fulfilled

### Prompt In plain terms: is recorded inhibition in vivo at 10 µmol/kg at least 30% for `COc1ccc(OC)c(/C=C2\S/C(=N/c3nccs3)NC2=O)c1` ?
### Response not fulfilled

### Prompt In plain terms: is recorded inhibition in vivo at 10 µmol/kg at least 30% for `O=C1N/C(=N\c2nccs2)S/C1=C\c1ccc(F)cc1` ?
### Response fulfilled

### Prompt In plain terms: is recorded inhibition in vivo at 10 µmol/kg at least 30% for `Cc1cnc(/N=C2\NC(=O)/C(=C/c3ccc([N+](=O)[O-])cc3)S2)s1` ?
### Response fulfilled

### Prompt In plain terms: is recorded inhibition in vivo at 10 µmol/kg at least 30% for `O=C1N/C(=N\c2nccs2)S/C1=C\c1cccc(Br)c1` ?
### Response fulfilled

###

- System: Pseudomonas aeruginosa
- measurementProtocol: Bactericidal activity against Pseudomonas aeruginosa ATCC 27853 after 72 hrs by serial subcultivation method
- Assay type: functional
- conditionDetails: ATCC 27853, 72 h
Give measured MBC for each item. Keep answers brief.
Give your result in µM as a bare value.

### Prompt Give Pseudomonas aeruginosa MBC for `O=C1N/C(=N\c2nccs2)S/C1=C\c1ccc(Br)cc1`
### Response 54.6

### Prompt Give Pseudomonas aeruginosa MBC for CC1(C)S[C@@H]2[C@H](NC(=O)[C@H](N)c3ccccc3)C(=O)N2[C@H]1C(=O)O [AMPICILLIN]
### Response 1240

### Prompt Give Pseudomonas aeruginosa MBC for `O=C1N/C(=N\c2nccs2)S/C1=C\c1ccc(Cl)cc1Cl`
### Response 70.2

### Prompt Give Pseudomonas aeruginosa MBC for `O=C1N/C(=N\c2nc(-c3ccccc3)cs2)S/C1=C\c1ccc(Cl)cc1`
### Response 100

### Prompt Give Pseudomonas aeruginosa MBC for `O=C1N/C(=N\c2nccs2)S/C1=C\c1cccc(F)c1`
### Response 32.7

### Prompt Give Pseudomonas aeruginosa MBC for `O=C1N/C(=N\c2nc(-c3ccccc3)cs2)S/C1=C\c1ccccc1`
### Response 108

### Prompt Give Pseudomonas aeruginosa MBC for `Cc1cnc(/N=C2\NC(=O)/C(=C/c3ccc([N+](=O)[O-])cc3)S2)s1`
### Response 116

### Prompt Give Pseudomonas aeruginosa MBC for CN[C@@H]1[C@H](O[C@H]2[C@H](O[C@H]3[C@H](O)[C@@H](O)[C@H](N=C(N)N)[C@@H](O)[C@@H]3N=C(N)N)O[C@@H](C)[C@]2(O)C=O)O[C@@H](CO)[C@H](O)[C@H]1O [STREPTOMYCIN]
### Response 344

### Prompt Give Pseudomonas aeruginosa MBC for `O=C1N/C(=N\c2nc(-c3ccccc3)cs2)S/C1=C\c1ccccc1Cl`
### Response 100

### Prompt Give Pseudomonas aeruginosa MBC for `O=C1N/C(=N\c2nccs2)S/C1=C\c1cccc(Br)c1`
### Response 25.6

Values compiled from ChEMBL document CHEMBL2311431.
